src = patent US6166070A

Measurement target: phosphatase (Rattus norvegicus, UniProt P43428)
Construct: from tissue; host or cells: rat liver microsomes, detergent (Triton X-100) disrupted
Procedure details: inhibition of phosphatase activity in detergent-disrupted microsomes
Assay type: biochemical
Settings: detergent-disrupted microsomes
pIC50: −log10 of the molar value.
Test readout: pIC50

Request: Value lookup for pIC50; key = CCC(C)/C=C(C)/C=C/C(=O)CC1=C(c2cc(O)c(O)cc2C2=C(O)/C(=C/c3ccc(O)cc3)OC2=O)C(O)(C(C)=O)C(O)C1=O (stereo not shown)
Result: ~3.50

###

Measurement target: phosphatase (Rattus norvegicus)
Construct: from tissue; host or cells: rat liver microsomes, detergent (Triton X-100) disrupted
Sequence (P43428 1-357): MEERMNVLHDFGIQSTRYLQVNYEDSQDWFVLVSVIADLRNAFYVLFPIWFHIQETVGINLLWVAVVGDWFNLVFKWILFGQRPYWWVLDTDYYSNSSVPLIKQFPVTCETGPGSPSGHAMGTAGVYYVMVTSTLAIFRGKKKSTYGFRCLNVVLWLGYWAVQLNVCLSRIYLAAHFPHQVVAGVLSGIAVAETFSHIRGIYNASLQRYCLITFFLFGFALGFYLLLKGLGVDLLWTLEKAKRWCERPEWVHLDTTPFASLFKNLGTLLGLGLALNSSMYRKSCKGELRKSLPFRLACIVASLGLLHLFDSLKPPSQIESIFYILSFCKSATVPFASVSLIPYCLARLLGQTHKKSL
Procedure details: inhibition of phosphatase activity in detergent-disrupted microsomes
Format: biochemical
Settings: detergent-disrupted microsomes; molar value in parentheses
Test readout: IC50

Request: Value lookup for IC50; key = CCC(C)/C=C(C)/C=C/C(=O)CC1=C(c2cc(O)c(O)cc2C2=C(O)/C(=C/c3ccc(O)cc3)OC2=O)C(O)(C(C)=O)C(O)C1=O (stereo not shown)
Result: ~300 µM
